Here the recorded OD450 is given for each entry.
Target: T1, Human CD19-his protein (human, UniProt P15391 20-291)
T1 construct: bought protein; also called human CD19 protein; recombinant human CD19-His; not shown: His tag
T1 sequence (looked up): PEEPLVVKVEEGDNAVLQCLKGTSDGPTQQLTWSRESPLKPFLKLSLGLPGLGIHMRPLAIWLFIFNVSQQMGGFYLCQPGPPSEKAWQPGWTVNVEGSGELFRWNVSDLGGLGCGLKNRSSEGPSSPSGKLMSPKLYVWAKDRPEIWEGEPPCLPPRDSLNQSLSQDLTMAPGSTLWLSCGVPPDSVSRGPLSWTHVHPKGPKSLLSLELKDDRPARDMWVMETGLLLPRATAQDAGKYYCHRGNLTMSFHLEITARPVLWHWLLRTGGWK
Test: ELISA, antibody at 1.00 nM
Reply with the value as a number alone.

Consider the following illustrative entries.
[[record]]
binder = "F4.37.6 (antibody, human IgG1, V domains shown, human-murine chimeric antibody, human IgG1) VH: QVQLQQSGAELARPGASVKLSCKASGYTFTSFWMQWLKQRPGQGLEWIGTIYPGDGDTRYTQKFKGKATLTADKSSNTAYMQLSSLASEDSAVYYCARGALSNYGGFAYWGQGTLVTVSA VL: NIVLTQSPASLAVSLGQRATISCRASESVDSYGHSFMHWYQQKPGQPPKLLIYLASNLESGVPARFSGSGSRTDFTLTIDPVEADDAATYYCQQNNEDPWTFGGGTKLEIK"
measured_parameter = "OD450"
meas_value = 0.8

[[record]]
binder = "F4.58.6 (antibody, human IgG1, V domains shown, human-murine chimeric antibody, human IgG1) VH: QVQLQQPGAELVKPGASVKLSCKASGYTFTSYWMHWVKQRPGQGLEWIGEIDPSDSYSNYNQKFKGKATLTVDKSSSTAYMQLSSLTSEDSAVYYCARSNYGSSYGYFDVWGAGTTVTVSS VL: QIVLTQSPAIMSASPGEKVTMTCSVSSSLSYMHWYQQKPGTSPKRWIYDTSKLASGVPARFSGSGSGTSYSLTISSMEAEDAATYYCHQRSSYPTFGGGTKLEIK"
measured_parameter = "OD450"
meas_value = 0.67


Item under review: F3.83.9 (antibody, human IgG1, V domains shown, human-murine chimeric antibody, human IgG1) VH: DVQLQESGPGLVKPSQSLSLTCSVTGYSITSGYYWNWIRQFPGNKLEWMGYISYDGGNNYNPSLKNRISITRDTSKNQFFLKLNSVTTEDTATYFCAREDYSNWYFDVWGTGTTVTVSS VL: DIVLTQSPASLAVSLGQRATISCRASQSVSKSSYSYMHWYQQKPGQSPKLLIKYASILKSGVPARFSGSGSGTDFTLNIHPVEEEDTATYYCQHSWEIPWTFGGGTKLEIK . Reported OD450?
0.36

Please do the same for F4.125.12 (antibody, human IgG1, V domains shown, human-murine chimeric antibody, human IgG1) VH: EVKLVESGGGLVQPGGSLKLSCAASGFTFSTYTMSWVRQTPEKRLEWVAFISSGGGHINYPDTVKGRFTISRDNAKNTLYLQMSSLKSEDTAMYYCARHSYWFFDVWGAGTTVTVSS VL: DVQITQSPSYLAASPGETITINCRASKNIDTYLAWYQEKPGKTNKLLIYSGSTLQSGIPSRFRGGGSGTDFTLTICSLEPEDFAMYYCQQHNEYPLTFGAGTKLELK as well.
1.68

Do the same for F4.152.7 (antibody, human IgG1, V domains shown, human-murine chimeric antibody, human IgG1) VH: QVQLQQPGAELVKPGASVKLSCKASGYTFTSYWMHWVKQRPGQGLEWIGEIDPSDSYTNYNQKFKGKATLTADKSSSTAYMQLSGLTSEDSAVYHCARGGDYDGYYVMDYWGQGTSVTVSS VL: EIVLTQSPTTMAASPGEKITITCSASSSISSNYLHWYQQKPGFSPKLLIYRTSNLASGVPARFSGSGSGTSYSLTIGTMEADDVATYYCQQGSYIPRIFTFGSGTKLEIK please
2.12

Further, for F4.180.1 (antibody, human IgG1, V domains shown, human-murine chimeric antibody, human IgG1) VH: EVQLQQSAPELVKPGASVKMSCKTSGYTFTENIIHWVKQTHGKSLEWIGGINPDNGGTSYHQKFKGRTTLTIDKSSSTAYMELRSLTSDDSAVFFCARQAPLYWYFDIWGAGTTVTVSS VL: DIVLTQSPASLAVSLGQRATISCRASESVDSYGNSLMHWFQQKPGQPPRLLIYRASNLESGIPARFSGSGSRTDFTLTITPVEADDVATYYCQQSNEDPWTFGGGTKLEIK ?
1.63

Now the binder F3.81.2 (antibody, human IgG1, V domains shown, human-murine chimeric antibody, human IgG1) VH: QVQLQQPGAELVMPGASVKLSCKASAYTFTNYWMHWVKQRPGHGLEWIGEIDPSDSYTDYNQNFKAKATLTVDKSSSTAYMQLSSLTSEDSAVYYCARLMGRYFDVWGTGTTVTVSS VL: DIVMTQSHKFMSTSVGDRVSITCKASQDVSAAVAWYQQKPGQSPKLLINSASYRYTGVPDRFTGSGSGTDFTFTISSVQAEDLAVYYCQQHYSTPLTFGAGTKLELR
0.74

Queued: F3.64.4 (antibody, human IgG1, V domains shown, human-murine chimeric antibody, human IgG1) VH: EVQLQQSGPELVKPGASVKISCKASGYTFTDYHINWVKQSHGKSPEWIGDINPNNGGTTYNQKFKDKATLTVDKSSSTAFMELRSLTSEDSAVYYCARFITTVVAWYFDVWGTGTTVTVSS VL: DIQMTQSPASLSVSVGETVTITCRASENIYSNLAWYQQKQGKSPQLLVYAATNLADGVPSRFSGSGSGTQYSLKINSLQSEDFGNYYCQRFWDTPRTFGGGTKLEIK
1.06

Next entry: F3.5.1 (antibody, human IgG1, V domains shown, human-murine chimeric antibody, human IgG1) VH: QAQLQQSGPELVKPGASVKISCKASGYAFSGSWMNWVQQRPGKGLEWIGRIYPGDGDTYYNGKFKDKAILTADKSSSTAYMQLSSLTSEDSAVYFCAQLRYRYVMDYWGQGTSVTVSS VL: DIVLTQSPASLAVSLGQRATISCRASESVSIHGSHLMHWYQQKPGQPPRLLIYAASNLESGVPARFSGSGSETDFTLNIHPVEEEDAATYFCQQGIKDPYTFGGGTKLEIK
1.38

Next binder: F4.18.13 (antibody, human IgG1, V domains shown, human-murine chimeric antibody, human IgG1) VH: QVQLQQSGPELVKPGASVKISCKASGYAFSSFWMNWVKQRPGEGLEWIGRIYPGDGDTNYNGKFKGKATLTADDSSSTAYMQLSSLTSVDSAVYFCAREVIAAVVTTDFDYWGQGTTLTVSS VL: DIQMTQTTSSLSASLGDRVTISCRTSQDISNYLNWYLQKPDGTVKLLIYYTSGLHSGVPSRFSGSGSGTDYSLTISNLEPEDIATYFCQQGKTLPYTFGGGTKLEIK
2.01

These measurements were taken from patent US20250042994A1.
